# run-description: physchem
# condition-info: aqueous medium at pH 7.4, pH 7.4, aqueous buffer, kinetic from dmso stock
measured-endpoint: solubility

Asked: Name the reported solubility value associated with the compound `CCOC(=O)N1CCN(Cc2nc3c(c(=O)n(C)c(=O)n3C)n2Cc2cccc(C)c2)CC1`
Given back: > 62 µg/mL

In the following, a different compound is considered.
Asked: Given `CNC(=O)c1ccc(Oc2nc3c(c(=O)n(C)c(=O)n3C)n2Cc2cccc(C)c2)cc1` , state its recorded solubility.
Given back: < 1 µg/mL

---

# run-description: Pharmacokinetics in CD1 mice
# Type: in vivo
# condition-info: CD1, mouse, plasma, ip, 30 mg/kg
measured-endpoint: half-life (min)
Respond with the bare value in min.

Asked: Would you kindly share the measured half-life for `CC(C)CCn1c(CN2CCN(C(=O)C3CC3)CC2)nc2c1c(=O)n(C)c(=O)n2C` ?
Given back: 42
